Just for reference, PubChem BioAssay is where these values come from.

Exercise: state measured composite z-score for each of the compounds provided.
# assayed.target: Albumin (Bos taurus) (UniProt P02769)
# Sequence (P02769 whole entry, looked up): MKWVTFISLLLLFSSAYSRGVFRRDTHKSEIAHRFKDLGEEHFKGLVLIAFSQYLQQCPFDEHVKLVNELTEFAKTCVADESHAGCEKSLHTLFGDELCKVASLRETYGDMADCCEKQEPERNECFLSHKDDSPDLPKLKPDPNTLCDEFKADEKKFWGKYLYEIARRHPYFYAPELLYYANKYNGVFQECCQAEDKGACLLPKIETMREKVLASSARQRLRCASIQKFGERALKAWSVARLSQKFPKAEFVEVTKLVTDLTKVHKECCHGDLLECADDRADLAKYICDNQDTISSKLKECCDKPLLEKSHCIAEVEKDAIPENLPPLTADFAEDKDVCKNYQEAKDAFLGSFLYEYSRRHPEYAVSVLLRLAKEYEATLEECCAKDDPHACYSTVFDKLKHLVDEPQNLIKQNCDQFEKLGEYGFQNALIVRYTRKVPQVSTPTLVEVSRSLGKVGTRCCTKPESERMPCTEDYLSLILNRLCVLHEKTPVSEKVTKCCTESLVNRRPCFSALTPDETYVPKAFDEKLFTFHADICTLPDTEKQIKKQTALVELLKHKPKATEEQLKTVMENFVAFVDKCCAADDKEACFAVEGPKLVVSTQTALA
# assay.method.text: bovine serum albumin binders on microarray, profiling panel, artefact control for SMM control protein annotation, biochemical, small-molecule microarray, Alexa647 label, 635/667 nm fluorescence (AID 1118);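 further: score merges 667 nm emission intensity and signal-to-noise per printed compound spot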
# condition.info: BSA-A647 binding, fluorescence 635 nm, higher = more signal
Give the value as a plain number.

Report composite z-score for CC(CCN1CCCc2nc(C)c(C)cc21)=NOC[C@@H](O)COCc1ccco1
-1.47

Provide measured composite z-score value, entry: CCN1C(=O)[C@H]2[C@H]3[C@H](O)[C@H](O)CC(=NOCC=C(C)CCC=C(C)C)[C@@H]3CC[C@H]2C1=O
0.44

Please look at this compound and report its composite z-score: C[C@@H]1C=CCC(=O)OC[C@H](C)C(=O)N[C@@H](Cc2ccccc2)C(=O)OC1
-0.568

Return reported composite z-score. Input compound: CCOC(=O)NN=C1C[C@@H](O)[C@@H](O)[C@@H]2[C@@H]3C(=O)N(CC)C(=O)[C@@H]3CC[C@H]12
0.541

Look up composite z-score of C[C@@H]1CC[C@@H](C(=O)O)N[C@H]1c1cccc(N2CCOCC2)c1 and report it.
0.262

Determine its reported composite z-score: COC(=O)[C@H](C)NC(=O)CCC1CC(OC(=O)NCCc2ccc(F)cc2)CC2(CCCC(COC(=O)NCC3CCCCC3)O2)O1 (stereo partly specified)
0.0505

Annotate the compound C[C@@H]1CC[C@H]2C(=O)O[C@@H](CN=[N+]=[N-])CN2[C@H]1c1ccc(Br)cc1 with its measured composite z-score.
0.677

Report composite z-score for O=C(NCCC[N+]1=CC=NC1c1ccccc1)N1CCCc2nc(-c3ccc(Br)cc3)ccc21 (stereo unspecified)
0.452

Could you please provide reported composite z-score for CC(CCN1CCCc2nc(C)c(C)cc21)=NOC[C@@H](C)[C@H](OCc1ccccc1)C(C)C ? Thanks!
-0.453

Give the value of composite z-score reported for the following: CO[C@@H]1COC(=O)[C@H](CCSC)NC(=O)CC=C[C@@H](C)COC(=O)[C@@H]2CCCN2C(=O)CC=C[C@H]1C
-1.43

Kindly indicate its recorded composite z-score. Item: CCc1cc2c(nc1CC)CCN(CCC(C)=NOC(C)CN1CCCCc3nc(C)c(C)cc31)C2 (stereo unspecified)
0.0846

Specify reported composite z-score for the compound shown: CCOC(=O)[C@H](Cc1ccccc1)NC(=O)CCC1CC(OC(=O)NCCc2ccc(F)cc2)CC2(CCCC(COC(=O)NCCC(C)C)O2)O1 (stereo partly specified)
0.508

Using known records, supply composite z-score for C[C@@H](c1ccccc1)N1C(=O)[C@H]2[C@H]3[C@H](O)[C@H](O)CC(=NNC(=O)OCc4ccccc4)[C@@H]3CC[C@H]2C1=O
0.517

Provide composite z-score value for the following compound: CC(CCN1CCCCc2nc(C)c(C)cc21)=NO[C@H](C)c1cn([C@@H]2COC[C@H]2O)nn1
0.43

Give the value of composite z-score reported for the following: C#CCCCON=C1C[C@@H](O)[C@@H](O)[C@@H]2[C@@H]3C(=O)N(C4CCCCC4)C(=O)[C@@H]3CC[C@@H]12
0.42

Annotate the compound COC(=O)[C@H](Cc1ccccc1)NC(=O)[C@@H](C)CO with its measured composite z-score.
0.317

// Input: CCCC[C@H]1CN2[C@@H](CC[C@@H](C)[C@@H]2c2ccc(Br)cc2)C(=O)O1 . Output its composite z-score only.
0.738

Read the entry CCN1C(=O)[C@H]2[C@H]3[C@H](O)[C@H](O)CC(=NNC(=O)OCc4ccccc4)[C@H]3CC[C@H]2C1=O and write its reported composite z-score.
0.185

Give the measured composite z-score for COc1cccc([C@H](O)Cn2cc(-c3ccc(CON=C(C)C)cc3)nn2)c1
0.212

Give composite z-score for Cc1ccc2[nH]c3nc(CCCn4ccnc4-c4ccccc4)nnc3c2c1
0.414

Note composite z-score for the compound shown: CC(CCC(=O)OC[C@H]1O[C@H](C#Cc2ccccc2)C=C[C@@H]1Oc1ccc(C)cc1)=NOC(C)CN1CCCCc2nc(C)c(C)cc21 (stereo partly specified)
0.473

State its composite z-score for this compound: CC(=O)OC[C@H]1O[C@@H](ON=C2[C@H]3CCn4c(=O)n(-c5ccccc5)c(=O)n4[C@H]3[C@H](O)[C@@H]3O[C@H]23)[C@H](OC(C)=O)[C@@H](OC(C)=O)[C@@H]1OC(C)=O
0.0931

Answer with reported composite z-score of C[C@H]1CC[C@H]2C(=O)N[C@H](Cc3ccccc3)C(=O)N2[C@@H]1c1ccccc1
-0.456

Complete the entry with composite z-score for COC(=O)[C@H](C)NC(=O)CCC1CC(OC(=O)NCc2cccc3ccccc23)CC2(CCCC(COC(=O)NCCCN3CCCC3=O)O2)O1 (stereo partly specified)
0.559

Supply measured composite z-score of CCc1cc2c(nc1CC)CCN(CCC(C)=NOC[C@@H](C)[C@H](OCc1ccccc1)C(C)C)C2 in your reply.
0.742

Give composite z-score for CCOC(=O)[C@H](Cc1ccccc1)NC(=O)CCC1CC(OC(=O)NCc2cccc3ccccc23)CC2(CCCC(COC(=O)NCc3ccc4c(c3)OCO4)O2)O1 (stereo partly specified)
0.85
